# MEASURED_ON: hNET (Homo sapiens, UniProt P23975)
# Construct: expressed in transfected cells
# Sequence (P23975 whole entry): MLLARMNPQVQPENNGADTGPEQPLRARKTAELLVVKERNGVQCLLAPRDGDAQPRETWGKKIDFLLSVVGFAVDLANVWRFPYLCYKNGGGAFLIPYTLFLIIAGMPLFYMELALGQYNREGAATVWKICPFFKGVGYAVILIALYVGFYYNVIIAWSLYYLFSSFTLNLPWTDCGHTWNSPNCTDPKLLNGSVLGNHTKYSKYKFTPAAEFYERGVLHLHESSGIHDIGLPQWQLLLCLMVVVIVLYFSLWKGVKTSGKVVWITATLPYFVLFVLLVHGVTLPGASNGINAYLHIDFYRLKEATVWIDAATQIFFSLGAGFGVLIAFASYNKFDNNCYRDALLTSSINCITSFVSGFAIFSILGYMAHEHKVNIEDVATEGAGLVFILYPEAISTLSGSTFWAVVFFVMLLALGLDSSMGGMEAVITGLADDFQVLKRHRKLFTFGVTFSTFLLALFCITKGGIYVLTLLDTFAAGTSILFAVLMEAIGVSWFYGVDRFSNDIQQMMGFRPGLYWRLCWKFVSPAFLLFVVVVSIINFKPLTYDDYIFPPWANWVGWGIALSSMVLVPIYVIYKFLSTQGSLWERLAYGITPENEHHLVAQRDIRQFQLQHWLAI
# RUN_DESCRIPTION: Norepinephrine (NE) uptake assay in MDCK-Net6 cells stably transfected with human hNET
# Assay type: cell-based
# CONDITION_LABEL: MDCK-Net6, 1 μM test compound, [3H]NE uptake
Structures can show the parent of a compound that is named as a salt.
EXPERIMENTAL_ENDPOINT: inhibition at 1 µM (%)

Worked examples, 2 compounds total:
COMPOUND	MEASURED_ON	inhibition at 1 µM, %
CN[C@H]1CCN(CC(c2ccc(OCc3ccccc3)cc2)C2(O)CCCCC2)C1 (stereo partly drawn) [Example 212, dihydrochloride]	hNET (Homo sapiens, UniProt P23975)	84.8
CN(C)C1CCN(CC(c2cccc(Cl)c2)C2CCCCC2)CC1 (stereo not drawn) [Example 233, dihydrochloride]	hNET (Homo sapiens, UniProt P23975)	91.1

[A] CN(C)C1CCN(CC(c2cccc(C(F)(F)F)c2)C2(O)CCCCC2)CC1 (stereo not drawn) [Example 321, dihydrochloride]
[B] NC1CCN(CC(c2cccc3ccccc23)C2(O)CCCCC2)CC1 (stereo not drawn) [Example 54, dihydrochloride]
[C] CN[C@H]1CCN(CC(c2cccc3ccccc23)C2(O)CCCCC2)C1 (stereo partly drawn) [Example 206, dihydrochloride]
[D] OC1([C@H](CN2CCC(N3CCCCC3)CC2)c2cccc(OC(F)(F)F)c2)CCCCC1 [Example 366, dihydrochloride]
[E] NC1CCN(CC(c2cccc(Cl)c2)C2(O)CCC3CCCCC3C2)CC1 (stereo not drawn) [Example 327, dihydrochloride]
Challenge: Order the entries by their reported inhibition at 1 µM, beginning at the minimum. The labels, placed in the requested order, form the answer.
Response given: E, C, B, A, D
(E: 3%, C: 19.2%, B: 39%, A: 66.1%, D: 99%)

[1] CNC1CCN(CC(c2cccc(Cl)c2)C2CCCC2)CC1 (stereo not drawn) [Example 228, dihydrochloride]
[2] CN(C)[C@@H]1CCN(CC(c2cccc(OC(F)(F)F)c2)C2(O)CCCCC2)C1 (stereo partly drawn) [Example 219, dihydrochloride]
Challenge: Response body: label of entry with the larger inhibition at 1 µM; valid values 1 , 2 . Give the chosen item's label as your response.
Response given: 1
(1: 84.2%, 2: 53.1%)

[1] CN[C@@H]1CCCN(CC(c2ccc(OCc3ccccc3)c(Cl)c2)C2(O)CCCCC2)C1 (stereo partly drawn) [Example 192, dihydrochloride]
[2] NC1CCN(CC(c2cccc(C(F)(F)F)c2)C2(O)CCCCC2)CC1 (stereo not drawn) [Example 39, dihydrochloride]
Challenge: # returns the entry with the larger inhibition at 1 µM; inputs 1 and 2 Respond with the label that goes with your answer.
Response given: 1
(1: 88.5%, 2: 56%)

[1] CC(C)(O)C(CN1CCC(N)CC1)c1cccc(Cl)c1 (stereo not drawn) [Example 273, dihydrochloride]
[2] NC1CCN(CC(c2ccc(OC(F)(F)F)cc2)C2(O)CCCCC2)CC1 (stereo not drawn) [Example 303, dihydrochloride]
[3] N[C@@H]1CCN(CC(c2cccc(C(F)(F)F)c2)C2(O)CCCCC2)C1 (stereo partly drawn) [Example 224, dihydrochloride]
Challenge: Give the ascending ranking of the items by reported inhibition at 1 µM. Record the ranking as a list of labels in the requested order.
Response given: 2, 3, 1

====

# MEASURED_ON: hNET (Homo sapiens)
# Construct: expressed in transfected cells
# RUN_DESCRIPTION: Norepinephrine (NE) uptake assay in MDCK-Net6 cells stably transfected with human hNET
# Assay type: cell-based
# CONDITION_LABEL: MDCK-Net6, 1 μM test compound, [3H]NE uptake
Where a name gives a salt, the structure may show the parent alone.
EXPERIMENTAL_ENDPOINT: inhibition at 1 µM (%)

[1] OC1(C(CN2CCC(N3CCCC3)CC2)c2ccc3ccccc3c2)CCCCC1 (stereo not drawn) [Example 31, dihydrochloride]
[2] NC1CCN(CC(c2cccc3ccccc23)C2(O)CCC2)CC1 (stereo not drawn) [Example 43, dihydrochloride]
Challenge: Identify the item whose inhibition at 1 µM is the smaller number: 1 or 2 Provide the label of your selected option as the answer.
Response given: 2
(2: 47%, 1: 70%)

[A] N[C@H]1CCCN(CC(c2ccc(OCc3ccccc3)c(Cl)c2)C2(O)CCCCC2)C1 (stereo partly drawn) [Example 196, dihydrochloride]
[B] NC1CCN(CC(c2ccc(OC(F)(F)F)cc2)C2(O)CCC2)CC1 (stereo not drawn) [Example 305, dihydrochloride]
Challenge: Given the two records A and B , choose the one whose inhibition at 1 µM value is lower. Return value: the label identifying the chosen record.
Response given: B
(B: 49.9%, A: 92.2%)

====

# MEASURED_ON: hNET (Homo sapiens, UniProt P23975)
# Construct: expressed in transfected cells
# RUN_DESCRIPTION: Norepinephrine (NE) uptake assay in MDCK-Net6 cells stably transfected with human hNET
# Format: cell-based
# CONDITION_LABEL: MDCK-Net6, 1 μM test compound, [3H]NE uptake
Counter-ions that a name gives are not always drawn.
EXPERIMENTAL_ENDPOINT: inhibition at 1 µM (%)

COMPOUND	inhibition at 1 µM [%]
CNC1CCN(C[C@H](c2cccc(Cl)c2)C2CCCCC2)CC1 (single isomer, unassigned) [Example 355, dihydrochloride]	71
NC1CCN(CC(c2ccc(OCc3ccccc3)c(Cl)c2)C2(O)CCCCC2)CC1 (stereo not drawn) [Example 428, dihydrochloride]	92
NC1CCN(CC(c2ccc3ccccc3c2)C2(O)CCCCC2)CC1 (stereo not drawn) [Example 32, dihydrochloride]	69
CN[C@H]1CCCN(CC(c2cccc(OC(F)(F)F)c2)C2(O)CCCCC2)C1 (stereo partly drawn) [Example 189, dihydrochloride]	67.9
CNC1CCN(CC(c2ccc(Cl)c(Cl)c2)C2(O)CCCCC2)CC1 (stereo not drawn) [Example 13, dihydrochloride]	89
CN(C)[C@@H]1CCN(CC(c2ccc(OCc3ccccc3)c(Cl)c2)C2(O)CCCCC2)C1 (stereo partly drawn) [Example 384, dihydrochloride]	88

====

# MEASURED_ON: hNET (Homo sapiens)
# Construct: expressed in transfected cells
# RUN_DESCRIPTION: Norepinephrine (NE) uptake assay in MDCK-Net6 cells stably transfected with human hNET
# Assay type: cell-based
# CONDITION_LABEL: MDCK-Net6, 1 μM test compound, [3H]NE uptake
Counter-ions that a name gives are not always drawn.
EXPERIMENTAL_ENDPOINT: inhibition at 1 µM (%)

COMPOUND	inhibition at 1 µM / %
OC1(C(CN2CCC(N3CCCCC3)CC2)c2ccc(OC(F)(F)F)cc2)CCCCC1 (stereo not shown) [Example 284, dihydrochloride]	91.1
CN(C)[C@H]1CCCN(CC(c2ccc(OCc3ccccc3)c(Cl)c2)C2(O)CCCCC2)C1 (stereo partly shown) [Example 197, dihydrochloride]	76
CN(C)[C@H]1CCN(CC(c2cccc(Cl)c2)C2(O)CCCCC2)C1 (stereo partly shown) [Example 199, dihydrochloride]	80.7
COc1ccc(C(CN2CCC(N(C)C)CC2)C2(O)CCCCC2)cc1Br (stereo not shown) [Example 318, dihydrochloride]	84
